These data points were gathered from ChEMBL document CHEMBL1146703.

system: Enterococcus faecalis; test: Antibacterial activity against Enterococcus faecalis; format: functional
Measurement label: MIC (µg/mL)
Lab book: enter the figure in µg/mL, no units written.

{"Compound": "C[C@@H](c1ccccc1)[C@@H]1NC(=O)CNC(=O)[C@H](CO)NC(=O)[C@@H]([C@@H](O)[C@@H]2CNC(N)N2[C@H]2O[C@H](CO)[C@@H](O)[C@H](O)[C@@H]2O)NC(=O)[C@H]([C@@H](O)[C@@H]2CNC(N)N2)NC(=O)[C@@H](Cc2ccc(O[C@H]3O[C@H](CO)[C@@H](O[C@H]4O[C@H](COC(=O)CCC5CCCC5)[C@@H](O)[C@H](O)[C@@H]4O)[C@H](O)[C@@H]3O)cc2)NC1=O (stereo partly drawn)", "Measured result": 4}

# ---- query compound ----
[in] Tell me the measured MIC of CC(C)CC(=O)O[C@@H]1[C@H](O)[C@@H](O[C@H]2[C@H](O)[C@H](O)[C@@H](Oc3ccc(C[C@H]4NC(=O)[C@H]([C@@H](C)c5ccccc5)NC(=O)CNC(=O)[C@H](CO)NC(=O)[C@@H]([C@@H](O)[C@@H]5CNC(N)N5[C@H]5O[C@H](CO)[C@@H](O)[C@H](O)[C@@H]5O)NC(=O)[C@H]([C@@H](O)[C@@H]5CNC(N)N5)NC4=O)cc3)O[C@@H]2CO)O[C@H](CO)[C@H]1O (stereo partly drawn) , please.
[out] 64
